Hey, just so you know, these numbers are from patent US20260374766A1.

Here, each record is paired with measured IC50 data.
Tested on: H1299 p53 Y220C
Assay: Cell Proliferation Assay (CellTiter-Glo, CTG), H1299 p53 Y220C (NClH1299-inducible p53 Y220C)
Type: cell-based
Conditions: Homo sapiens, NCI-H1299, 120 h, CellTiter-Glo, H1299 p53 Y220C, 5 days

Below, each entry is followed by its recorded IC50 result.
[
  {
    "MOLECULE": "CNC(=O)c1ccc(NCC#Cc2nc3c(N[C@@H]4CCc5ncnn5C4)cccn3c2SC(F)(F)F)c(OC)c1 (stereo in doubt) [Example 190]",
    "READOUT LABEL": "IC50",
    "RECORDED RESULT": "< 750 nM"
  },
  {
    "MOLECULE": "CNC(=O)c1ccc(NCC#Cc2nc3c(N[C@@H]4CCC(=O)N(C)C4)cccn3c2SC(F)(F)F)c(OC)c1 [Example 188]",
    "READOUT LABEL": "IC50",
    "RECORDED RESULT": "750 to 1500 nM"
  },
  {
    "MOLECULE": "CCOc1cc(C(=O)NC)ccc1NCC#Cc1nc2c(N[C@@H]3CCN(C)C[C@@H]3F)cccn2c1SC(F)(F)F [Example 127]",
    "READOUT LABEL": "IC50",
    "RECORDED RESULT": "< 750 nM"
  },
  {
    "MOLECULE": "CNC(=O)c1ccc(OC)c(NCC#Cc2nc3c(N[C@@H]4CCN(C)C[C@@H]4F)cccn3c2SC(F)F)c1 [Example 167]",
    "READOUT LABEL": "IC50",
    "RECORDED RESULT": "< 750 nM"
  },
  {
    "MOLECULE": "CNC(=O)c1ccc(NCC#Cc2nc3c(NC4CC5(C4)CN(CC(F)F)C5)cccn3c2SC(F)(F)F)c(OC)c1 [Example 173]",
    "READOUT LABEL": "IC50",
    "RECORDED RESULT": "750 to 1500 nM"
  },
  {
    "MOLECULE": "CNC(=O)c1ccc(OC)c(NCC#Cc2nc3c(N[C@@H]4CCNC[C@@H]4F)cccn3c2SC(F)(F)F)n1 [Example 217]",
    "READOUT LABEL": "IC50",
    "RECORDED RESULT": "< 750 nM"
  }
]

query: Entry CNC(=O)c1cc(OC)c(NCC#Cc2nc3c(N[C@@H]4CCN(C)C[C@@H]4F)cccn3c2SC(F)(F)F)cc1Cl [Example 121] : reported IC50 = ?
result: < 750 nM

* * *

Target: p53 Y220C mutant protein (amino acid residues 94-293) (Homo sapiens, UniProt P04637, Y220C)
Construct: p53 Y220C mutant protein (amino acid residues 94-293)
Assay: Thermal Shift Assay (TSA), dTM
Assay type: binding
Details: thermal shift, 10 uM compound; read-out: TSA P53 Y220C dTM (10 uM)
READOUT LABEL: ΔTm at 10 µM

[
  {
    "COMPOUND": "CNC(=O)c1ccc(NCC#Cc2nc3c(NCC4(F)CNC4)cccn3c2SC(F)(F)F)c(OC)c1 [Example 197]",
    "ΔTm at 10 µM": "5 to 10 °C"
  },
  {
    "COMPOUND": "CNC(=O)c1ccc(NCC#Cc2cc3c(N[C@@H]4CCN(C)C[C@@H]4F)cccn3c2SC(F)F)c(OC)c1 [Example 135]",
    "ΔTm at 10 µM": "≥ 10 °C"
  },
  {
    "COMPOUND": "CNC(=O)c1ccc(NCC#Cc2nc3c(N[C@H]4CCc5nncn5C4)cccn3c2SC(F)(F)F)c(OC)c1 [Example 191]",
    "ΔTm at 10 µM": "5 to 10 °C"
  }
]

For the next question, use this compound.
query: Can you look up the measured ΔTm at 10 µM of CNC(=O)c1ccc(OC)c(NCC#Cc2nc3c(NC4CC5(C4)CN(CC(F)F)C5)cccn3c2SC(F)(F)F)c1 [Example 204] for me?
result: 5 to 10 °C

* * *

Listed next: entries and their corresponding AC50.
Molecular target: p53 Y220C (Homo sapiens, UniProt P04637, Y220C)
Assay: Luciferase Reporter Assay (Luc), p53 response element, NClH1299 cells with inducible p53 Y220C
Assay type: cell-based
Settings: luciferase reporter, NClH1299 inducible p53 Y220C, 6 hour; read-out: Luc P53 Y220C AC50

# annotated cases, reported AC50 shown
[
  {
    "COMPOUND": "CNC(=O)c1ccc(NCC#Cc2nn3c(N[C@@H]4CCN(C)C[C@@H]4F)cccc3c2CC(F)(F)F)c(OC)c1 [Example 118]",
    "TARGET ENTITY": "p53 Y220C (Homo sapiens, UniProt P04637, Y220C)",
    "AC50": "1.5 to 3 µM"
  },
  {
    "COMPOUND": "COc1cc(C(=O)NC(C)C)ccc1NCC#Cc1nc2c(N[C@@H]3CCN(C)C[C@@H]3F)cccn2c1SC(F)(F)F [Example 89]",
    "TARGET ENTITY": "p53 Y220C (Homo sapiens, UniProt P04637, Y220C)",
    "AC50": "< 0.75 µM"
  },
  {
    "COMPOUND": "CNC(=O)c1ccc(OC)c(NCC#Cc2nc3c(N[C@@H]4C[C@H]5CC[C@@H]([C@@H]4F)N5C)cccn3c2SC(F)(F)F)c1 [Example 199]",
    "TARGET ENTITY": "p53 Y220C (Homo sapiens, UniProt P04637, Y220C)",
    "AC50": "< 0.75 µM"
  },
  {
    "COMPOUND": "CN1CC[C@@H](Nc2cccn3c(CC(F)(F)F)c(C#CCN)nc23)[C@@H](F)C1 [Example 75]",
    "TARGET ENTITY": "p53 Y220C (Homo sapiens, UniProt P04637, Y220C)",
    "AC50": "> 3 µM"
  },
  {
    "COMPOUND": "COc1cc(S(N)(=O)=O)ccc1NCC#Cc1nc2c(N[C@@H]3CCN(C)C[C@@H]3F)cccn2c1CC(F)(F)F [Example 63]",
    "TARGET ENTITY": "p53 Y220C (Homo sapiens, UniProt P04637, Y220C)",
    "AC50": "1.5 to 3 µM"
  }
]

query: Can you share its AC50? I mean this compound: CNC(=O)c1ccc(NCC#Cc2nc3c(N[C@H]4CCc5ncnn5C4)cccn3c2SC(F)(F)F)c(OC)c1 (stereo in doubt) [Example 189]
result: > 3 µM

query: Next: CNC(=O)c1ccc(NCC#Cc2nc3c(N[C@@H]4CCN(C)C[C@@H]4F)cccn3c2CC(F)(F)F)c(OC)n1 [Example 92]
result: < 0.75 µM

query: Repeat with COCCN1CCC(Nc2cccn3c(CC(F)(F)F)c(C#CCNc4ccc(S(C)(=O)=O)cc4OC)nc23)CC1 [Example 113]
result: 1.5 to 3 µM

query: Try this compound too: COc1cc(S(C)(=O)=O)ccc1NCC#Cc1nc2c(NC3CCN(CC(C)(C)O)CC3)cccn2c1CC(F)(F)F [Example 11]
result: 1.5 to 3 µM

query: Now the same for CNC(=O)c1ccc(NCC#Cc2nc3c(N[C@H]4C[C@@H]5CC[C@@H](N5)[C@H]4F)cccn3c2SC(F)(F)F)c(OC)c1 [Example 201]
result: < 0.75 µM

query: Now give it for COc1cc(S(C)(=O)=O)ccc1NCC#Cc1nc2c(N[C@@H]3CCNC[C@@H]3F)cccn2c1SC(F)(F)F [Example 83] too.
result: < 0.75 µM

query: Again, but for CNC(=O)c1ccc(OC)c(NCC#Cc2nc3c(N[C@@H]4C[C@H]5CC[C@H](N5)[C@@H]4F)cccn3c2SC(F)(F)F)c1 [Example 202]
result: < 0.75 µM

query: Check CNC(=O)c1ccc(NCC#Cc2nc3c(NC4CCN(C)CC4)cc(NC(=O)OC)cn3c2CC(F)(F)F)c(OC)c1 [Example 45] too.
result: > 3 µM

query: Next record, please: CCS(=O)(=O)c1ccc(NCC#Cc2nc3c(N[C@@H]4CCNC[C@@H]4F)cccn3c2SC(F)(F)F)c(OC)c1 [Example 80]
result: < 0.75 µM

* * *

Recorded IC50, one value per entry.
Test system: H1299 p53 R273H
Assay: Cell Proliferation Assay (CellTiter-Glo, CTG), H1299 p53 R273H (NClH1299-inducible p53 R273H)
Type: cell-based
Settings: Homo sapiens, NCI-H1299, 120 h, CellTiter-Glo, H1299 p53 R273H, 5 days

[
  {
    "COMPOUND": "CNC(=O)c1ccc(NCC#Cc2nc3c(N[C@@H]4CCNC[C@@H]4F)cccn3c2SC(F)(F)F)c(OC)c1",
    "RECORDED RESULT": "5 to 8 µM"
  },
  {
    "COMPOUND": "CNC(=O)c1ccc(O)c(NCC#Cc2cc3c(N[C@@H]4CCN(C)C[C@@H]4F)nccn3c2SC(F)(F)F)c1",
    "RECORDED RESULT": "≥ 10 µM"
  },
  {
    "COMPOUND": "COc1ncc(C(N)=O)cc1NCC#Cc1nc2c(N[C@@H]3CCN(C)C[C@@H]3F)cccn2c1SC(F)(F)F",
    "RECORDED RESULT": "< 5 µM"
  }
]

query: Entry "COc1cc(S(=O)(=O)C(C)C)ccc1NCC#Cc1nc2c(N[C@@H]3CCN(C)C[C@@H]3F)cccn2c1SC(F)(F)F" : reported IC50 = ?
result: ≥ 10 µM

query: Same again, this time with "COc1cc(C(=O)NC2CC2)ccc1NCC#Cc1nc2c(N[C@@H]3CCN(C)C[C@@H]3F)cccn2c1CC(F)(F)F"
result: 8 to 10 µM

query: And what about the compound "CN1CC[C@@H](Nc2cccn3c(CC(F)(F)F)c(C#CCN)nc23)[C@@H](F)C1" ?
result: ≥ 10 µM

query: Field entry: "CNC(=O)c1ccc(OC)c(NCC#Cc2nc3c(N[C@@H]4C[C@H]5CC[C@@H]([C@@H]4F)N5C)cccn3c2SC(F)(F)F)c1"
result: < 5 µM
